These measurements were taken from paper PMC7381729.

- experiment summary: Biodistribution in Daudi xenograft bearing mice
- Type: in vivo, mouse
- recorded conditions: female, CB-17 SCID, mouse, tumor / kidney, iv, total radioactivity; 48h p.i.; means ± SD, n=4-5 animals; read-out: Tumor/organ ratio t/kidney
Where a SMILES comes first, the peptide text is derived from it. Side-chain parts run from the residue outwards. [ ]: non-standard residue; d: D form. The star is where a group is joined. DOTA = O=C(O)CN1CCN(CC(=O)O)CCN(CC(=O)*)CCN(CC(=O)O)CC1; dTyr(3-I) = N[C@H](Cc1ccc(O)c(I)c1)C(=O)O; 2Nal = N[C@@H](Cc1ccc2ccccc2c1)C(=O)O; dNMeOrn = CN[C@H](CCCN)C(=O)O; 4Amb = NCc1ccc(C(=O)O)cc1; 4Abz = Nc1ccc(C(=O)O)cc1
experimental endpoint: tissue to tissue ratio at 48 h

Examples with their reported tissue to tissue ratio at 48 h follow.
C[C@@H](NC(=O)[C@@H](CCCNC(=N)N)NC(=O)CN1CCN(CC(=O)O)CCN(CC(=O)O)CCN(CC(=O)O)CC1)C(=O)Nc1ccc(C(=O)NCCC[C@@H]2C(=O)N[C@@H](CCCNC(=N)N)C(=O)N[C@@H](Cc3ccc4ccccc4c3)C(=O)NCC(=O)N[C@H](Cc3ccc(O)c(I)c3)C(=O)N2C)cc1 [[^177Lu]DOTA-r-a-ABA-iodoCPCR4, metal not drawn] (cyclo([2Nal]G[dTyr(3-I)][dNMeOrn]([4Abz-dA-dR-DOTA])R)) ... 3.1
C[C@@H](NC(=O)[C@@H](CCCNC(=N)N)NC(=O)CN1CCN(CC(=O)O)CCN(CC(=O)O)CCN(CC(=O)O)CC1)C(=O)Nc1ccc(C(=O)NCCC[C@@H]2C(=O)N[C@@H](CCCNC(=N)N)C(=O)N[C@@H](Cc3ccc4ccccc4c3)C(=O)NCC(=O)N[C@H](Cc3ccc(O)cc3)C(=O)N2C)cc1 [[^177Lu]DOTA-r-a-ABA-CPCR4, metal not drawn] (cyclo([2Nal]G[dY][dNMeOrn]([4Abz-dA-dR-DOTA])R)) ... 2.9

Now for the compound whose tissue to tissue ratio at 48 h we want.
Asked: Which tissue to tissue ratio at 48 h is listed for CN1C(=O)[C@@H](Cc2ccc(O)c(I)c2)NC(=O)CNC(=O)[C@H](Cc2ccc3ccccc3c2)NC(=O)[C@H](CCCNC(=N)N)NC(=O)[C@H]1CCCNC(=O)c1ccc(CNC(=O)CN2CCN(CC(=O)O)CCN(CC(=O)O)CCN(CC(=O)O)CC2)cc1 [[^177Lu]PentixaTher, metal not drawn, reference compound] (cyclo([dTyr(3-I)][dNMeOrn]([4Amb-DOTA])R[2Nal]G)) ?
Given back: 2.7

====

- experiment summary: Biodistribution in Daudi xenograft bearing mice
- Type: in vivo, mouse
- recorded conditions: female, CB-17 SCID, mouse, muscle, iv, with AMD3100, 50 µg per animal, coinjected (CXCR4 competition), total radioactivity, 1h p.i., coinjection of 50 µg AMD3100/animal; means ± SD, n=3; read-out: Biodistribution muscle, competition with AMD3100
Where a SMILES comes first, the peptide text is derived from it. Side-chain parts run from the residue outwards. [ ]: non-standard residue; d: D form. The star is where a group is joined. DOTA = O=C(O)CN1CCN(CC(=O)O)CCN(CC(=O)*)CCN(CC(=O)O)CC1; 2Nal = N[C@@H](Cc1ccc2ccccc2c1)C(=O)O; dNMeOrn = CN[C@H](CCCN)C(=O)O; 4Abz = Nc1ccc(C(=O)O)cc1
experimental endpoint: tissue uptake at 1 h (%ID/g)
Write it as a number; the unit %ID/g goes unstated.

Asked: Would you kindly share the measured tissue uptake at 1 h for C[C@@H](NC(=O)[C@@H](CCCNC(=N)N)NC(=O)CN1CCN(CC(=O)O)CCN(CC(=O)O)CCN(CC(=O)O)CC1)C(=O)Nc1ccc(C(=O)NCCC[C@@H]2C(=O)N[C@@H](CCCNC(=N)N)C(=O)N[C@@H](Cc3ccc4ccccc4c3)C(=O)NCC(=O)N[C@H](Cc3ccc(O)cc3)C(=O)N2C)cc1 [[^68Ga]DOTA-r-a-ABA-CPCR4, metal not drawn] (cyclo([2Nal]G[dY][dNMeOrn]([4Abz-dA-dR-DOTA])R)) ?
Given back: 0.4

====

Property: tissue uptake at 1 h; scope: individual compounds
- experiment summary: Biodistribution in Daudi xenograft bearing mice
- Type: in vivo, mouse
- recorded conditions: female, CB-17 SCID, mouse, muscle, iv, total radioactivity, 1h p.i., tracer only, i.v.; γ-counter; means ± SD, n=4-5 (68Ga: n=4); read-out: Biodistribution muscle
Where a SMILES comes first, the peptide text is derived from it. Side-chain parts run from the residue outwards. [ ]: non-standard residue; d: D form. The star is where a group is joined. DOTA = O=C(O)CN1CCN(CC(=O)O)CCN(CC(=O)*)CCN(CC(=O)O)CC1; dTyr(3-I) = N[C@H](Cc1ccc(O)c(I)c1)C(=O)O; 2Nal = N[C@@H](Cc1ccc2ccccc2c1)C(=O)O; dNMeOrn = CN[C@H](CCCN)C(=O)O; 4Abz = Nc1ccc(C(=O)O)cc1
Provide a numeric answer, followed by its unit.

C[C@@H](NC(=O)[C@@H](CCCNC(=N)N)NC(=O)CN1CCN(CC(=O)O)CCN(CC(=O)O)CCN(CC(=O)O)CC1)C(=O)Nc1ccc(C(=O)NCCC[C@@H]2C(=O)N[C@@H](CCCNC(=N)N)C(=O)N[C@@H](Cc3ccc4ccccc4c3)C(=O)NCC(=O)N[C@H](Cc3ccc(O)c(I)c3)C(=O)N2C)cc1 [[^68Ga]DOTA-r-a-ABA-iodoCPCR4, metal not drawn] (cyclo([2Nal]G[dTyr(3-I)][dNMeOrn]([4Abz-dA-dR-DOTA])R)) ... 0.49 %ID/g

Next:
Asked: Give the measured tissue uptake at 1 h of C[C@@H](NC(=O)[C@@H](CCCNC(=N)N)NC(=O)CN1CCN(CC(=O)O)CCN(CC(=O)O)CCN(CC(=O)O)CC1)C(=O)Nc1ccc(C(=O)NCCC[C@@H]2C(=O)N[C@@H](CCCNC(=N)N)C(=O)N[C@@H](Cc3ccc4ccccc4c3)C(=O)NCC(=O)N[C@H](Cc3ccc(O)cc3)C(=O)N2C)cc1 [[^68Ga]DOTA-r-a-ABA-CPCR4, metal not drawn] (cyclo([2Nal]G[dY][dNMeOrn]([4Abz-dA-dR-DOTA])R)) .
Given back: 0.45 %ID/g

====

- Tested on: Daudi (human B-cell lymphoma) xenograft bearing CB-17 SCID mice
- experiment summary: Biodistribution in Daudi xenograft bearing mice
- Type: in vivo, mouse
- recorded conditions: 1h p.i., tracer only, i.v.; γ-counter; means ± SD, n=4-5 (68Ga: n=4)
Where a SMILES comes first, the peptide text is derived from it. Side-chain parts run from the residue outwards. [ ]: non-standard residue; d: D form. The star is where a group is joined. DOTA = O=C(O)CN1CCN(CC(=O)O)CCN(CC(=O)*)CCN(CC(=O)O)CC1; dTyr(3-I) = N[C@H](Cc1ccc(O)c(I)c1)C(=O)O; 2Nal = N[C@@H](Cc1ccc2ccccc2c1)C(=O)O; dNMeOrn = CN[C@H](CCCN)C(=O)O; 4Amb = NCc1ccc(C(=O)O)cc1; 4Abz = Nc1ccc(C(=O)O)cc1
Quick reference for Biodistribution lung among some compounds
The reply should contain only the number, in %iD/g.

Before answering, review these 3 worked examples.
C[C@@H](NC(=O)[C@@H](CCCNC(=N)N)NC(=O)CN1CCN(CC(=O)O)CCN(CC(=O)O)CCN(CC(=O)O)CC1)C(=O)Nc1ccc(C(=O)NCCC[C@@H]2C(=O)N[C@@H](CCCNC(=N)N)C(=O)N[C@@H](Cc3ccc4ccccc4c3)C(=O)NCC(=O)N[C@H](Cc3ccc(O)c(I)c3)C(=O)N2C)cc1 [[^177Lu]DOTA-r-a-ABA-iodoCPCR4] [metal not drawn] (cyclo([2Nal]G[dTyr(3-I)][dNMeOrn]([4Abz-dA-dR-DOTA])R)) ... 7.06
CN1C(=O)[C@@H](Cc2ccc(O)c(I)c2)NC(=O)CNC(=O)[C@H](Cc2ccc3ccccc3c2)NC(=O)[C@H](CCCNC(=N)N)NC(=O)[C@H]1CCCNC(=O)c1ccc(CNC(=O)CN2CCN(CC(=O)O)CCN(CC(=O)O)CCN(CC(=O)O)CC2)cc1 [[^177Lu]PentixaTher, metal not drawn, reference compound] (cyclo([dTyr(3-I)][dNMeOrn]([4Amb-DOTA])R[2Nal]G)) ... 2.5
C[C@@H](NC(=O)[C@@H](CCCNC(=N)N)NC(=O)CN1CCN(CC(=O)O)CCN(CC(=O)O)CCN(CC(=O)O)CC1)C(=O)Nc1ccc(C(=O)NCCC[C@@H]2C(=O)N[C@@H](CCCNC(=N)N)C(=O)N[C@@H](Cc3ccc4ccccc4c3)C(=O)NCC(=O)N[C@H](Cc3ccc(O)c(I)c3)C(=O)N2C)cc1 [[^68Ga]DOTA-r-a-ABA-iodoCPCR4] [metal not drawn] (cyclo([2Nal]G[dTyr(3-I)][dNMeOrn]([4Abz-dA-dR-DOTA])R)) ... 2.91

Asked: Dear colleague, I am looking for the recorded Biodistribution lung of the following compound: C[C@@H](NC(=O)[C@@H](CCCNC(=N)N)NC(=O)CN1CCN(CC(=O)O)CCN(CC(=O)O)CCN(CC(=O)O)CC1)C(=O)Nc1ccc(C(=O)NCCC[C@@H]2C(=O)N[C@@H](CCCNC(=N)N)C(=O)N[C@@H](Cc3ccc4ccccc4c3)C(=O)NCC(=O)N[C@H](Cc3ccc(O)cc3)C(=O)N2C)cc1 [[^177Lu]DOTA-r-a-ABA-CPCR4] [metal not drawn] (cyclo([2Nal]G[dY][dNMeOrn]([4Abz-dA-dR-DOTA])R))
Given back: 3.53
